- assay_info: NCI Yeast Anticancer Drug Screen. Data for the bub3 strain (AID 167)
- test_context: S. cerevisiae bub3 mutant strain, at 5.0 µM (retest, dose inferred, filed as 0.5)
The panel holds about 79,000 compounds, 15% with a hit somewhere; the sample as a whole holds those more often. Activity calls are given as the source filed them. Rule as the data show it: active = growth inhibition above about 70%; inactive = the rest.
Your reply should match one of these outcome classes. T = active, F = inactive

Consider the worked cases shown below.
INSERT INTO results (molecule, category_label) VALUES
  ('CCOC(=O)/C(=C\c1cccc(Br)c1)C(C)=O', 'T'),
  ('CCCCCCCOc1ccc(C=O)cc1OC', 'F'),
  ('Cc1ccc(S(=O)(=O)NC(CCC(=O)Nc2ccccc2)C(=O)O)cc1 (stereo unspecified)', 'F'),
  ('CCCCCCN(CCCCCC)CCCCCC', 'F'),
  ('Cc1cccc(/C=N/Nc2ccccn2)n1', 'F');

Would you mind telling me which call this test gave O=c1[nH]c(C(F)(F)F)c(F)c(=O)[nH]1 ? F
